experiment: PhoP regulon inhibitors, Salmonella typhi PhoP promoter GFP reporter, confirmatory (AID 1850); conditions: fluorescence, 4 h, at 50 µM, active compounds read high;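 also: 0% = induced wells with vehicle and 100% = uninduced wells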
The campaign covered roughly 310,000 compounds. About 1,000 (0.32%) were called active. The list is a sample of the results. Measured potencies and affinities stand elsewhere.
measured metric: inhibition (%)

[
  {
    "molecule": "COc1ccc(Nc2ccnc(Nc3ccc(OC)cc3)n2)cc1",
    "measured metric": "inhibition",
    "quantitative result": -1.84
  },
  {
    "molecule": "O=c1c2c([nH]c3ccccc13)CCCCCC2",
    "measured metric": "inhibition",
    "quantitative result": -10.8
  },
  {
    "molecule": "CN(Cc1ccccc1OCCO)CC1CCCN(CCc2ccc(Cl)cc2)C1 (configuration not stated)",
    "measured metric": "inhibition",
    "quantitative result": 0.25
  },
  {
    "molecule": "c1ccc(Nc2cccc(Nc3ccccc3)n2)cc1",
    "measured metric": "inhibition",
    "quantitative result": 6.98
  },
  {
    "molecule": "COc1ccccc1NC(=O)CSc1nnc(CCC(=O)Nc2ccccc2F)n1C",
    "measured metric": "inhibition",
    "quantitative result": -5.48
  },
  {
    "molecule": "CCC[C@@H](CN[C@@H](CNC)[C@H](C)CC)NCC1CCC(C(C)(C)C)CC1 (some centres not stated)",
    "measured metric": "inhibition",
    "quantitative result": 11.1
  },
  {
    "molecule": "CC(C)c1nn(-c2cc(C(F)(F)F)ccn2)c(=O)o1",
    "measured metric": "inhibition",
    "quantitative result": 1.48
  },
  {
    "molecule": "O=C(CCN1C(=O)/C(=C/c2cccs2)SC1=S)Nc1ccc(C(=O)O)cc1",
    "measured metric": "inhibition",
    "quantitative result": 1.33
  },
  {
    "molecule": "COc1ccc(/C=C/C(=O)NC(=S)NNC(=O)c2cc(OC)c(OC)c(OC)c2)cc1",
    "measured metric": "inhibition",
    "quantitative result": 4.25
  },
  {
    "molecule": "CCCCOc1ccc(/C(O)=C2/C(=O)C(=O)N(CCN(C)C)C2c2ccc(O)c(OC)c2)cc1 (configuration not stated)",
    "measured metric": "inhibition",
    "quantitative result": -11.8
  },
  {
    "molecule": "Cc1ccc(S(=O)(=O)N2CN3CCN(C3)C2)cc1",
    "measured metric": "inhibition",
    "quantitative result": 13.8
  },
  {
    "molecule": "C/C(=N\\Nc1ccc2nncn2n1)c1cccs1",
    "measured metric": "inhibition",
    "quantitative result": 4.31
  },
  {
    "molecule": "O=c1[nH]c2ccccc2c2ccccc12",
    "measured metric": "inhibition",
    "quantitative result": -21.4
  },
  {
    "molecule": "Cc1ccc(OCC(=O)N/N=C\\c2c(C)n(C)c3ccccc23)c([N+](=O)[O-])c1",
    "measured metric": "inhibition",
    "quantitative result": -4.6
  },
  {
    "molecule": "CC(/C=C/c1ccccc1)=N/NC(=O)c1cnccn1",
    "measured metric": "inhibition",
    "quantitative result": 1.54
  },
  {
    "molecule": "CC(=O)N(Cc1cc2cc(C)c(C)cc2n2nnnc12)CC1COCCO1 (configuration not stated)",
    "measured metric": "inhibition",
    "quantitative result": -4
  },
  {
    "molecule": "Cc1ccsc1C1CC(=O)Nc2ccccc2S1 (configuration not stated)",
    "measured metric": "inhibition",
    "quantitative result": 3.75
  },
  {
    "molecule": "c1ccc2c(c1)CC(N1CCCCC1)c1ccccc1S2 (configuration not stated)",
    "measured metric": "inhibition",
    "quantitative result": 16.3
  },
  {
    "molecule": "CN(C)C(=S)NC(=O)c1cccc(Cl)c1",
    "measured metric": "inhibition",
    "quantitative result": -16.5
  },
  {
    "molecule": "COc1cccc2c(=O)c3cccc(N)c3[nH]c12",
    "measured metric": "inhibition",
    "quantitative result": -6.45
  },
  {
    "molecule": "CCN(Cc1cc2ccccc2[nH]c1=O)C(=O)c1cccnc1",
    "measured metric": "inhibition",
    "quantitative result": 1.33
  },
  {
    "molecule": "Cc1ccc(O)c(-c2cc(C(F)(F)C(F)F)[nH]n2)c1",
    "measured metric": "inhibition",
    "quantitative result": -3.16
  },
  {
    "molecule": "Nc1ccccc1SCC(O)Cn1ccc2ccccc21 (configuration not stated)",
    "measured metric": "inhibition",
    "quantitative result": 0.67
  },
  {
    "molecule": "O=C(Nc1nc(-c2ccccc2Cl)cs1)c1cccnc1",
    "measured metric": "inhibition",
    "quantitative result": 3.73
  },
  {
    "molecule": "Cc1[nH]n(-c2ccccc2)c(=O)c1/C=N/NC(=O)COc1ccccc1[N+](=O)[O-]",
    "measured metric": "inhibition",
    "quantitative result": -5.18
  },
  {
    "molecule": "Nc1nc(N)nc(-c2cccc(Cl)c2Cl)n1",
    "measured metric": "inhibition",
    "quantitative result": -6.05
  },
  {
    "molecule": "Cn1c(N)c(C(=O)COC(=O)CN2C(=O)c3ccccc3C2=O)c(=O)n(C)c1=O",
    "measured metric": "inhibition",
    "quantitative result": -5.68
  },
  {
    "molecule": "Cc1ccccc1C(=O)Nc1c(C(=O)N2CCCC2)cnn1-c1ccccc1",
    "measured metric": "inhibition",
    "quantitative result": -11.9
  },
  {
    "molecule": "CC1CCCN(C(=O)COC(=O)Cc2c(F)cccc2Cl)C1 (configuration not stated)",
    "measured metric": "inhibition",
    "quantitative result": 8.14
  },
  {
    "molecule": "CCOC(=O)C1=C(c2ccccc2)OC(N)=C(C#N)C1c1cccnc1 (configuration not stated)",
    "measured metric": "inhibition",
    "quantitative result": 9.75
  },
  {
    "molecule": "CC(C)c1ccc(OCC(=O)NNC(=S)NC(=O)c2cccs2)c(Br)c1",
    "measured metric": "inhibition",
    "quantitative result": -8.98
  },
  {
    "molecule": "CN1Cc2cccc3c2C(Cc2ccccc2S3)C1 (configuration not stated)",
    "measured metric": "inhibition",
    "quantitative result": -6.53
  },
  {
    "molecule": "CN1CCN(C2Cc3ccccc3Sc3cc(C(F)(F)F)ccc32)CC1 (configuration not stated)",
    "measured metric": "inhibition",
    "quantitative result": 2.06
  },
  {
    "molecule": "CCN(CC)CCCn1c2c(c(SCC(=O)Nc3ccc4c(c3)OCCO4)nc1=O)CCC2",
    "measured metric": "inhibition",
    "quantitative result": 11.9
  },
  {
    "molecule": "O=C(O)c1cccc(Nc2ccnc(Nc3cccc(C(=O)O)c3)n2)c1",
    "measured metric": "inhibition",
    "quantitative result": 2.42
  },
  {
    "molecule": "CC(CCc1ccccc1)NCc1cccc2ccccc12 (configuration not stated)",
    "measured metric": "inhibition",
    "quantitative result": -6.36
  },
  {
    "molecule": "COc1ccccc1CCNCc1cccc(C(F)(F)F)c1",
    "measured metric": "inhibition",
    "quantitative result": 2.37
  },
  {
    "molecule": "CCOc1cccc(CN(C)CC2CCCN(CCc3ccc(Cl)cc3)C2)c1O (configuration not stated)",
    "measured metric": "inhibition",
    "quantitative result": -8.67
  },
  {
    "molecule": "Cc1ccc(S(=O)(=O)N2CCN(c3cnn(C)c(=O)c3Cl)CC2)cc1",
    "measured metric": "inhibition",
    "quantitative result": -6.96
  },
  {
    "molecule": "c1ccc2c(c1)CC(N1CCCCC1)c1ccccc1N2 (configuration not stated)",
    "measured metric": "inhibition",
    "quantitative result": -3.45
  },
  {
    "molecule": "OCCN1CCN(c2ncnc3scc(-c4ccc(F)cc4)c23)CC1",
    "measured metric": "inhibition",
    "quantitative result": 4.62
  },
  {
    "molecule": "N#Cc1c(C(F)(F)F)cc(Cc2ccccc2)nc1SCC(=O)NCC(=O)O",
    "measured metric": "inhibition",
    "quantitative result": -9.26
  },
  {
    "molecule": "FC(F)C(F)(F)c1cc(-c2ccccc2)n[nH]1",
    "measured metric": "inhibition",
    "quantitative result": 5.29
  },
  {
    "molecule": "O=c1c2c([nH]c3ccccc13)CCCC2",
    "measured metric": "inhibition",
    "quantitative result": 3.59
  },
  {
    "molecule": "CCOC(=O)N/N=C/c1ccc(C)o1",
    "measured metric": "inhibition",
    "quantitative result": -0.31
  },
  {
    "molecule": "COc1ccc(OC)c(-n2nnnc2SCC(=O)NCc2ccc3c(c2)OCO3)c1",
    "measured metric": "inhibition",
    "quantitative result": 0.94
  },
  {
    "molecule": "CN1CCN(CCC(=O)Nc2cccc(F)c2)CC1",
    "measured metric": "inhibition",
    "quantitative result": -7.12
  }
]

Where do these numbers come from? They come from PubChem BioAssay AID1850.
